- TARGET_OF_ASSAY: Chk1 (Homo sapiens)
- Construct: purchased Upstate Biotechnology
- Sequence (O14757 1-476): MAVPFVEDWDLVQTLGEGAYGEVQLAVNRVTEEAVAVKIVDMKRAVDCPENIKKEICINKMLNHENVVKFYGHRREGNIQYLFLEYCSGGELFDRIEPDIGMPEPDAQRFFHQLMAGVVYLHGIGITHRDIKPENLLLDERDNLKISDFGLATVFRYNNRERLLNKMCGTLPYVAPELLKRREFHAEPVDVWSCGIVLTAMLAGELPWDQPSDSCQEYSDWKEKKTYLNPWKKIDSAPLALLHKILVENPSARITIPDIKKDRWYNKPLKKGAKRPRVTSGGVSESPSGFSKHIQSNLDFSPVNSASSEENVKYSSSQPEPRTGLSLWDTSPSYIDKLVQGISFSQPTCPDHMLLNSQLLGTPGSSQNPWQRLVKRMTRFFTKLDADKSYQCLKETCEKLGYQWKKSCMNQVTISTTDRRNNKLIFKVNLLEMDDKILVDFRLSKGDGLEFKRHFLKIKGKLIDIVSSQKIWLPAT
- MEASUREMENT_DESCRIPTION: Chk1 kinase assay: incorporation of γ-33P ATP into immobilized myelin basic protein
- Assay type: biochemical
- CONDITION_SUMMARY: Table 11; Chk1 only; read-out: Chk1 IC50
READOUT_TYPE: IC50

Consider the compound `Nc1ncc(-c2cccc(CO)c2)nc1-c1nnc(-c2ccccc2)[nH]1` and give its measured IC50. 50 to 1000 nM

Also check CNC(=O)c1nc(-c2cccc(CNC3CCc4cc(F)ccc43)c2)cnc1N (stereo not shown) 50 to 1000 nM

***
Consider the compound Nc1ncc(-c2cccc(C(=O)NCc3ccccc3)c2)nc1C(=O)NC1CCCCC1NC(=O)c1nc(-c2cccc(C(=O)NCc3ccccc3)c2)cnc1N (stereo not shown) and give its measured IC50. ≥ 10000 nM

Also check `Nc1ncc(-c2cccc(C(=O)N[C@H]3CCc4ccccc43)c2)nc1C(=O)NCCc1c[nH]cn1` 50 to 1000 nM

###

Measured pIC50 of individual entries
- TARGET_OF_ASSAY: Chk1 (Homo sapiens)
- Construct: purchased Upstate Biotechnology
- MEASUREMENT_DESCRIPTION: Chk1 kinase assay: incorporation of γ-33P ATP into immobilized myelin basic protein
- Assay type: biochemical
- CONDITION_SUMMARY: Table 11; Chk1 only; read-out: Chk1 IC50
pIC50: −log10 of the molar value.

Use these answered entries as a reference point.
Consider the molecule NC(=O)c1nc(-c2cccc(C(=O)NCc3ccccc3)c2)cnc1N [Example 667] and give its measured pIC50. 6.00 to 7.30

Also check CNC(=O)c1nc(-c2cccc(CN[C@@H]3CCc4cc(-c5ccccc5)ccc4C3)c2)cnc1N [Example 497] 6.00 to 7.30

Also check CC(C)(C)OC(=O)N1CCC[C@@H]1CN1CC[C@H](NC(=O)c2nc(-c3cccc(C(=O)NCc4ccccc4)c3)cnc2N)C1 [Example 688] ≤ 5.00

We next turn to a different molecule, shown below.
Consider the molecule COC(=O)CNC(=O)c1nc(-c2cccc(C(=O)NCc3ccccc3)c2)cnc1N [Example 576] and give its measured pIC50. 5.00 to 6.00

###

- TARGET_OF_ASSAY: Chk1 (Homo sapiens)
- Construct: purchased Upstate Biotechnology
- MEASUREMENT_DESCRIPTION: Chk1 kinase assay: incorporation of γ-33P ATP into immobilized myelin basic protein
- Format: biochemical
- CONDITION_SUMMARY: Table 11, Chk1 only; class symbols A-D; read-out: Chk1 IC50
pIC50: −log10 of the molar value.
READOUT_TYPE: pIC50

Consider the compound `Nc1ncc(-c2cccc(O)c2)nc1C(=O)N[C@H]1CCNC1` and give its measured pIC50. 6.00 to 7.30

***
Consider the compound `CN(C)c1ccc(NC(=O)NCc2cccc(-c3cnc(N)c(C(=O)N[C@H]4CCCNC4)n3)c2)cc1` and give its measured pIC50. > 7.30

###

Measured IC50 of individual entries
- TARGET_OF_ASSAY: Chk1 (Homo sapiens)
- Construct: purchased Upstate Biotechnology
- MEASUREMENT_DESCRIPTION: Chk1 kinase assay: incorporation of γ-33P ATP into immobilized myelin basic protein
- Type: biochemical
- CONDITION_SUMMARY: Table 11; Chk1 only; read-out: Chk1 IC50

Consider the compound CNC(=O)c1nc(-c2cccc(CNC3CCc4cc(OCCN5CCOCC5)ccc43)c2)cnc1N (stereo not shown) and give its measured IC50. 0.05 to 1 µM

Also check `Nc1ncc(-c2cccc(C(=O)NCc3ccccc3)c2)nc1C(=O)c1ccc(-c2ccccc2)cc1` ≥ 10 µM

Also check `CNC(=O)c1nc(-c2cccc([C@H](C)N[C@H]3CCc4ccccc43)c2)cnc1N` 0.05 to 1 µM

***
Consider the compound CNC(=O)c1nc(-c2cccc(CNC3CCc4cc(-n5cncn5)ccc43)c2)cnc1N (stereo not shown) and give its measured IC50. 0.05 to 1 µM

Also check `NC(=O)c1nc(-c2cccc(S(=O)(=O)N[C@H]3CCc4ccccc43)c2)cnc1N` 1 to 10 µM

###

- TARGET_OF_ASSAY: Chk1 (Homo sapiens)
- Construct: purchased Upstate Biotechnology
- MEASUREMENT_DESCRIPTION: Chk1 kinase assay: incorporation of γ-33P ATP into immobilized myelin basic protein
- Assay type: biochemical
- CONDITION_SUMMARY: Table 11, Chk1 only; class symbols A-D; read-out: Chk1 IC50
Measured IC50 of individual entries

Consider the compound `Nc1ncc(-c2cccc(NC(=O)Cc3ccc(F)cc3)c2)nc1C(=O)N[C@H]1CCCNC1` and give its measured IC50. < 50 nM

Also check `Nc1ncc(-c2cccc(C(=O)NCc3ccc4c(c3)OCCO4)c2)nc1C(=O)N[C@H]1CCCNC1` < 50 nM

Also check `Nc1ncc(-c2cccc(C(=O)N[C@@H]3c4ccccc4C[C@@H]3O)c2)nc1C(=O)N[C@H]1CCCNC1` < 50 nM

Also check `Nc1ncc(-c2cccc(C(=O)NCc3c(F)cccc3Cl)c2)nc1-c1nc([C@H]2CCCNC2)n[nH]1` 50 to 1000 nM

Also check `Nc1ncc(-c2cccc(CN[C@@H]3c4ccccc4C[C@@H]3O)c2)nc1C(=O)N[C@H]1CCNC1` < 50 nM

***
Consider the compound `Cc1cc(Br)cc(NC(=O)NCc2cccc(-c3cnc(N)c(C(=O)N[C@H]4CCCNC4)n3)c2)c1` and give its measured IC50. < 50 nM

Also check `Nc1ncc(-c2cccc(C(=O)NCc3ccccc3Br)c2)nc1C(=O)N[C@H]1CCCNC1` < 50 nM

###

Measured IC50 of individual entries
- TARGET_OF_ASSAY: Chk1 (Homo sapiens)
- Construct: purchased Upstate Biotechnology
- MEASUREMENT_DESCRIPTION: Chk1 kinase assay: incorporation of γ-33P ATP into immobilized myelin basic protein
- Format: biochemical
- CONDITION_SUMMARY: Table 11; Chk1 only; read-out: Chk1 IC50
- Experimental: Chk1 and Chk2 assays were performed by measuring incorporation of γ-^33P ATP into immobilized myelin basic protein (MBP). […] Each data point was measured in duplicate, and at least two duplicate assays were performed for each individual compound determination. […] The above assay procedure can be used to determine the IC50 for inhibition and/or the inhibition constant Ki. […] The Ki for a compound may be determined from the IC50 based on three assumptions. […]

Consider the compound `Nc1ncc(-c2cccc(C(=O)NCc3ccccc3)c2)nc1C(=O)NCCNS(=O)(=O)c1ccccn1` and give its measured IC50. ≥ 10 µM

Also check `Nc1ncc(-c2cccc(CO)c2)nc1-c1nc(-c2ccncc2)n[nH]1` < 0.05 µM

Also check `CC(=O)c1nc(-c2cccc(CN[C@H]3CCc4ccccc43)c2)cnc1N` 0.05 to 1 µM

***
Consider the compound `CNC(=O)c1nc(-c2cccc(CN[C@H]3CCc4c(F)cccc43)c2)cnc1N` and give its measured IC50. < 0.05 µM

Also check `Nc1ncc(-c2cccc(C(=O)NCc3ccccc3)c2)nc1C(=O)N1CCOCC1` 1 to 10 µM

###

Measured IC50 of individual entries
- TARGET_OF_ASSAY: Chk1 (Homo sapiens)
- Construct: purchased Upstate Biotechnology
- Sequence (O14757 1-476): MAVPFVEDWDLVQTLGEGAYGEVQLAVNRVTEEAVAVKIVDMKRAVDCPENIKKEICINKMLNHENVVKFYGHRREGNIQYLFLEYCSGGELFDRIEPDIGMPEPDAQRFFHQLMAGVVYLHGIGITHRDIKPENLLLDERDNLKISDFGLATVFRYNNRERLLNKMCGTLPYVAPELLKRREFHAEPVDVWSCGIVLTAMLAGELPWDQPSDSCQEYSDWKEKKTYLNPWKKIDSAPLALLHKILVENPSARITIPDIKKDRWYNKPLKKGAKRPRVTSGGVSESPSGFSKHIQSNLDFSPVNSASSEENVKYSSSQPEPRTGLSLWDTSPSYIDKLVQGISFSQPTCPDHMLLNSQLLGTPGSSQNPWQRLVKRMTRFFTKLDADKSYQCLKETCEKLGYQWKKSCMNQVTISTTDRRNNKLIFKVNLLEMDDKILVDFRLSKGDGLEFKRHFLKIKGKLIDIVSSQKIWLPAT
- MEASUREMENT_DESCRIPTION: Chk1 kinase assay: incorporation of γ-33P ATP into immobilized myelin basic protein
- Assay type: biochemical
- CONDITION_SUMMARY: Table 11; Chk1 only; read-out: Chk1 IC50

Use these answered entries as a reference point.
Fill in the recorded IC50 for this compound, with Chk1 (Homo sapiens) as test system: CNC(=O)c1nc(-c2cccc(CNC3Cc4ccc(Br)cc4C3)c2)cnc1N (centres unmarked) [Example 456] 50 to 1000 nM

Also check CNC(=O)c1nc(-c2cccc(CNC3CCc4cc(-c5ccoc5)ccc43)c2)cnc1N (centres unmarked) [Example 480] < 50 nM

Also check CNC(=O)c1nc(-c2cccc(CNC3CCc4ccc(-c5cccs5)cc43)c2)cnc1N (centres unmarked) [Example 495] 50 to 1000 nM

Also check CNC(=O)c1nc(-c2cnc3ccccc3c2)cnc1N [Example 503] 1000 to 10000 nM

Also check C/C(=N\N(C)C)c1nc(-c2cccc(C(=O)NCc3ccccc3)c2)cnc1N [Example 629] 50 to 1000 nM

***
Fill in the recorded IC50 for this compound, with Chk1 (Homo sapiens) as test system: Cc1nc(-c2nc(-c3cccc(C(=O)NCc4ccccc4)c3)cnc2N)nn1C [Example 671] 1000 to 10000 nM

Also check Nc1ncc(-c2cccc(CN[C@H]3CCc4ccccc43)c2)nc1-c1nnc(Cc2ccccc2)[nH]1 [Example 555] 50 to 1000 nM

Also check CCNNC(=N)c1nc(-c2cccc(C(=O)NC3CCc4ccccc43)c2)cnc1N (centres unmarked) [Example 718] 1000 to 10000 nM
